Entry source: paper PMC8866119

- target-entity: SARS-CoV-2 Omicron (B.1.1.529) RBD (SARS-CoV-2 Omicron B.1.1.529 (BA.1), strain)

{"binder": "BG4-25 (antibody, V domains shown) VH: EVQLVESGGGLIQPGGSLRLSCAASGITVVRNYMTWVRQAPGKGLEWVSVIYSGGTTYYADSVKGRFTISRDNSKNTMYLQMNSLRAEDTAIYYCARDLEVVGAMDVWGQGTTVTVSS VL: EIVLTQSPGTLSLSPGERATLSCRASQSVPSSYLAWYQQKPGQAPRLLIYGASSRATGIPDRFSGSGSGTDFTLTISRLEPEDFAVYYCQQYGSPMYTFGQGTKLEIK", "binding result": "binds"}
{"binder": "BD55-1831 (antibody, V domains shown) VH: QVQLQESGPGLVKPSQTLSLTCTVSGGSISNGDYYWSWIRQPPGKGLEWIGYIHNSGSTYKKLSLRSRLTISVDTSKNQFSLKLSSVTAADTAVYYCARTASPSGAWYFDFWGRGTLVTVSS VL: SYVLTQPPSVSVAPGQTARITCGGNDIGSKNVHWYQQKPGQAPLLVVYDDTDRPSGIPERFSGSNSGNPATLTISRVEAGDEADYYCQVWDSSFDHVIFGGGTKLTVL", "binding result": "binds"}
{"binder": "BD55-5300 (antibody, V domains shown) VH: QVQLVQSGAEVKKPGSSVKVSCKASGGSFTSHAVSWVRQAPGQGLEWMGVSIPLFGTAKYAQKFQGRVTITADESTSTVYMSLSNLRSGDTAVYYCARLFPNGTPTDLTAPSDYWGQGTLVTVSS VL: DIQMTQSPSSLSASVGDRVTITCQASQDIGNYLNWYQQKPGKAPKLLIYDASHLETGVPSRFSGSASGTDFTLTISSLQPDDIATYYCQRYDDVPTYTFGQGTKLEIK", "binding result": "binds"}
{"binder": "BD55-4325 (antibody, V domains shown) VH: QAQLVQSGAEVKKPGASVKVSCEAIGYAFKTYGISWVRQAPGQGLEWVGWISGHDGTTNYAQKFQGRVTLTTDTSTNTAFLEVKSLRSDDTAVFYCARDKAYSGYDYWSTIFDYWGQGTLVTVST VL: SYVLTQPPSVSVAPGKTATITCGGNNIRSKSVQWFQQRPGQAPILVLYYDTDRPSGIPERFSGSNSGNTATLTISRVEAGDEADYYCQVWDSTTDHYLFGTGTKVTVL", "binding result": "binds"}
